Documented pKi across a set of compounds
Experiment: Inhibitory activity against metabotropic glutamate receptor 5 (mGluR5)
// pKi: -log10(molar conc.)

The cases that follow already have their pKi on record.
| Compound | pKi |
| --- | --- |
| Cc1ccc(C(=O)COC(=O)c2ccc(N3C(=O)CCCC3=O)cc2)cc1C | 5.49 |
| COc1ccc(C(=O)COC(=O)c2ccc(N3C(=O)C4CC=CCC4C3=O)cc2)cc1[N+](=O)[O-] (stereo not given) | 5.77 |
| CC1=C(C)C(=O)N(c2ccc(C(=O)OCC(=O)c3ccc(C)c(C)c3)cc2)C1=O | 5.19 |
| Cc1ccc(C(=O)COC(=O)c2ccc(N3C(=O)C4CC=CCC4C3=O)cc2)cc1[N+](=O)[O-] (stereo not given) | 5.42 |

# ---- query compound ----
Given item Cc1ccc(C(=O)COC(=O)c2ccc(N3C(=O)CC(C)C3=O)cc2)cc1C (stereo not given) , the value recorded as its pKi is 6.39

Provenance of the data: ChEMBL document CHEMBL1139596
